pIC50: −log10 of the molar value.
Here's a roundup of pIC50 values tested on Hepatocyte growth factor receptor (Homo sapiens, UniProt P08581), taken from various published works.

> print(dat)
                                 mol.smiles  value.reported
1  Nc1ncc(-c2cnn(CC(=O)NCCO)c2)cc1-c1nc2ccccc2s1    4.70 to 6.00

Hepatocyte growth factor receptor (Homo sapiens, UniProt P08581) pIC50 of COCCn1cc(-c2ccc3nnc(Sc4ccc5nc(NC(=O)C6CC6)cn5n4)n3c2)cn1 is 7.23 to 7.52

Hepatocyte growth factor receptor (Homo sapiens, UniProt P08581) pIC50 of CNCCOc1cc2nccc(Oc3c(F)cc(NC(=O)c4cccnc4OC4CC4)cc3F)c2cc1OC is ≥ 7.00

###

Here's a roundup of IC50 values tested on Hepatocyte growth factor receptor (Homo sapiens, UniProt P08581), taken from various published works.

> print(dat)
                                 mol.smiles  value.reported
1  CN(C)Cc1nn2c(Cc3ccc4ncc(-c5cnn(C)c5)cc4c3)nnc2s1        < 100 nM

Sample CNC(=O)c1ccc(-c2ccc3nnc(Sc4ccc5nc(NC(=O)C6CC6)cn5n4)n3c2)cc1Cl ; IC50 observed: < 30 nM

Sample O=C(Nc1ccc(Oc2ccnc(NC(=O)C3CC3)c2)c(F)c1)c1c2n(n(-c3ccccc3)c1=O)CCC2 ; IC50 observed: 15 nM

Sample CN1CCN(C(=O)c2cccc(-c3cnc(N)c(-c4nc5ccccc5s4)c3)c2)CC1 ; IC50 observed: 1000 to 20000 nM

Sample CNCCOc1cc2nccc(Oc3ccc(NC(=O)c4cnccc4OC(F)F)c(F)c3F)c2cc1OC ; IC50 observed: ≤ 100 nM

Sample COc1ccc2c(Oc3ccc(NC(=O)c4cc5ncsc5n(-c5ccccc5CCO)c4=O)cc3F)ccnc2c1 ; IC50 observed: 100 to 1000 nM

Sample COc1ccn(-c2ccc(F)cc2)c(=O)c1C(=O)Nc1ccc(Oc2ccnc3cc(OCCCN4CCOCC4)c4c(c23)OCCO4)c(F)c1 ; IC50 observed: ≤ 50 nM

Sample O=C(NCC(F)(F)F)c1ccc(-c2ccc3nnc(Cc4ccc5ncccc5c4)n3n2)cc1 ; IC50 observed: < 100 nM

Sample COc1ccn(-c2ccc(F)cc2)c(=O)c1C(=O)Nc1ccc(Oc2ccnc3ccc4c(c23)OCCO4)cc1F ; IC50 observed: 50 to 500 nM

Sample Cn1cc(-c2cnc3ccc(Cc4nnc5sc(CNCCN6CCOCC6)nn45)cc3c2)cn1 ; IC50 observed: < 100 nM

Sample COCc1nn2c(Cc3ccc4ncc(-c5cnn(C)c5)cc4c3)nnc2s1 ; IC50 observed: < 100 nM

Sample CCNC(=O)c1ccc(-c2ccc3nnc(Cc4ccc5ncccc5c4)n3n2)cc1F ; IC50 observed: < 100 nM

Sample Cn1cc(C(F)(F)F)c(-c2ccc(S(=O)(=O)NCc3c[nH]c4ncccc34)s2)n1 ; IC50 observed: ≤ 10000 nM

###

pIC50: −log10 of the molar value.
Here's a roundup of pIC50 values tested on Hepatocyte growth factor receptor (Homo sapiens, UniProt P08581), taken from various published works.

> print(dat)
                                   molecule                                       tgt  value.reported
1  COc1cc(OC2CC2)c(C(=O)Nc2cc(F)c(Oc3ccnc4cc(OCCO)c(OC)cc34)c(F)c2)cn1  Hepatocyte growth factor receptor (Homo sapiens, UniProt P08581)          ≥ 7.00
2  O=C(O)c1ccc(-c2cnc3c(c2)N(Cc2ccccc2)CCN3)cc1  Hepatocyte growth factor receptor (Homo sapiens, UniProt P08581)    5.00 to 6.00
3  COc1ccccc1C1=NN(Cc2cccc(NC(=O)OCCCN(C)C)c2)C(=O)SC1  Hepatocyte growth factor receptor (Homo sapiens, UniProt P08581)    6.00 to 8.00
4  CC(C(=O)NCCO)n1cc(-c2cnc(N)c(-c3nc4ccccc4s3)c2)cn1 (centres unmarked)  Hepatocyte growth factor receptor (Homo sapiens, UniProt P08581)    4.70 to 6.00
5  Cn1cc(-c2cc(Oc3ccc(NC(=O)Nc4cc(C(F)(F)F)no4)c(F)c3)ccn2)cn1  Hepatocyte growth factor receptor (Homo sapiens, UniProt P08581)          > 5.00
6  Cc1n[nH]c2cc(-c3n[nH]c4c3Cc3sc(-c5ccc(CN6CCOCC6)cc5)cc3-4)ccc12  Hepatocyte growth factor receptor (Homo sapiens, UniProt P08581)          < 6.00

Hepatocyte growth factor receptor (Homo sapiens, UniProt P08581) pIC50 of Nc1ncc(-c2ccc(C(=O)N3CCOCC3)cc2)cc1-c1nc2ccccc2s1 is 4.70 to 6.00

Hepatocyte growth factor receptor (Homo sapiens, UniProt P08581) pIC50 of COCCn1cc(C(=O)Nc2ccc(Oc3ccnc4cc(OC)c5c(c34)OCCO5)c(F)c2)c(=O)n(-c2ccc(F)cc2)c1=O is ≥ 7.30

###

Here's a roundup of IC50 values tested on Hepatocyte growth factor receptor (Homo sapiens), taken from various published works.

> print(dat)
                                   compound  measurement.type  value.reported
1  O=C(Nc1cccc(Cn2nc(-c3cc(F)c(F)c(F)c3)ccc2=O)c1)OCCN1CCOCC1              IC50   10 to 1000 nM
2  COCCN1CCC(n2cc(-c3cnc(N)c(-c4nc5ccccc5s4)c3)cn2)CC1              IC50  100 to 1000 nM

Hepatocyte growth factor receptor (Homo sapiens) IC50 of Cc1cc2ncccc2cc1Cc1nnc2ccc(-c3cccc(C#N)c3)nn12 is < 100 nM

Hepatocyte growth factor receptor (Homo sapiens) IC50 of Cn1ncc2ccc(-c3n[nH]c4c3Cc3sc(-c5cnc(N)nc5)cc3-4)cc21 is > 1000 nM

Hepatocyte growth factor receptor (Homo sapiens) IC50 of COc1ccc(C(=O)c2c[nH]c3ncc(-c4cccc(/C=C/C(=O)O)c4)cc23)c(Cl)c1 is ≤ 10000 nM

Hepatocyte growth factor receptor (Homo sapiens) IC50 of CCOC(=O)Nc1cccc(Cn2nc(-c3cccc(CC(=O)NCCN)c3)ccc2=O)c1 is 10 to 1000 nM

Hepatocyte growth factor receptor (Homo sapiens) IC50 of COc1cc2nccc(Oc3ccc(NC(=O)c4cccn(-c5ccc(F)cc5)c4=O)cc3F)c2c2c1OCCO2 is ≤ 50 nM

Hepatocyte growth factor receptor (Homo sapiens) IC50 of NCc1ccc(-c2ccc3nnc(Cc4ccc5ncccc5c4)n3n2)cc1 is < 100 nM

Hepatocyte growth factor receptor (Homo sapiens) IC50 of CCOc1ccn(-c2ccc(F)cc2)c(=O)c1C(=O)Nc1ccc(Oc2ccnc3cc(OCCCC#N)c4c(c23)OCCO4)cc1Cl is ≤ 50 nM

Hepatocyte growth factor receptor (Homo sapiens) IC50 of NC(=O)c1cccc(-c2ccc3nnc(C(F)(F)c4ccc5nc(NC(=O)C6CC6)cn5n4)n3c2)c1 is < 30 nM

###

Here's a roundup of IC50 values tested on Hepatocyte growth factor receptor (Homo sapiens, UniProt P08581), taken from various published works.

> print(dat)
                                 mol.smiles                                       tgt  value.reported
1  Nc1ncc(-c2cnn([C@@H]3CN[C@H](C(=O)N4CCC4)C3)c2)cc1-c1nc2ccccc2s1  Hepatocyte growth factor receptor (Homo sapiens, UniProt P08581)        ≤ 100 nM
2  CCn1cc(C(=O)Nc2ccc(Oc3ccnc4cc(OCCOC)c5c(c34)OCCO5)c(F)c2)c(=O)n(-c2ccc(F)cc2)c1=O  Hepatocyte growth factor receptor (Homo sapiens, UniProt P08581)         ≤ 50 nM

Hepatocyte growth factor receptor (Homo sapiens, UniProt P08581) IC50 of Nc1ncc(-c2cnn(C3CCNCC3)c2)cc1-c1nc2c(F)cccc2s1 is ≤ 100 nM

Hepatocyte growth factor receptor (Homo sapiens, UniProt P08581) IC50 of Cn1cc2cc(C(F)(F)c3nnc4ccc(-c5cncc(F)c5)nn34)c(F)cc2n1 is 242 nM

###

Here's a roundup of IC50 values tested on Hepatocyte growth factor receptor (Homo sapiens), taken from various published works.

> print(dat)
                                   compound  measurement.type  value.reported
1  CCOC(=O)Nc1cccc(Cn2nc(-c3cccc(CC(=O)NCCN(C)C)c3)ccc2=O)c1              IC50   10 to 1000 nM
2  CNCCOc1cc2nccc(Oc3c(F)cc(NC(=O)c4cnccc4OC)cc3F)c2cc1OC              IC50        ≤ 100 nM
3  CC(Oc1cc(-c2ccnn2C)cnc1N)c1cc(F)cc2cccnc12 (centres unmarked)              IC50         7870 nM
4  CS(=O)(=O)Nc1ccc(F)c(C(=O)c2c[nH]c3ncc(-c4cccc(C(N)=O)c4)cc23)c1              IC50      ≤ 10000 nM
5  Cc1ccc2nnc(Cc3ccc4ncc(-c5cnn(CCN6CCCC6)c5)cc4c3)n2n1              IC50        < 100 nM

Sample Nc1ncc(-c2cnn(C3CCNCC3)c2)cc1N1CCc2c(Cl)cccc2C1 ; IC50 observed: 100 to 1000 nM

Sample O=C(c1ccc(-c2cnc3c(c2)N(Cc2c(Cl)cccc2Cl)CCN3)cc1)N1CCC(N2CCCC2)CC1 ; IC50 observed: 100 to 1000 nM

Sample Cn1cc(C(=O)Nc2ccc(Oc3ccnc4cc(OCC(C)(C)O)c5c(c34)OCCO5)c(F)c2)c(=O)n(-c2ccc(F)cc2)c1=O ; IC50 observed: 50 to 500 nM
